Source listed as ChEMBL document CHEMBL4038335.

test: Clearance in mouse hepatic microsomes at 10 uM preincubated for 5 mins followed by NADPH addition measured over 60 mins by HPLC-MS/MS analysis; type: ADME, Microsome; conditions: liver microsomes
quantity_measured: CLhep predicted at 10 µM (mL/min/kg)
Number in mL/min/kg, nothing else.

Below, each entry is followed by its recorded CLhep predicted at 10 µM result.
compound=C[C@@]1(O)CC[C@H]2[C@H](CC[C@@H]3[C@@H]2CC[C@]2(C)[C@@H](C(=O)Cn4cccn4)CC[C@@H]32)C1 value_unit=mL/min/kg recorded_number=81.7
compound=Cc1cnn(CC(=O)[C@H]2CC[C@H]3[C@@H]4CC[C@@H]5C[C@](C)(O)CC[C@@H]5[C@H]4CC[C@]23C)n1 value_unit=mL/min/kg recorded_number=81.7
compound=CC(=O)[C@H]1CC[C@H]2[C@@H]3CC[C@H]4C[C@H](O)CC[C@]4(C)[C@H]3CC[C@]12C value_unit=mL/min/kg recorded_number=66.7
compound=C[C@@]1(O)CC[C@H]2[C@H](CC[C@@H]3[C@@H]2CC[C@]2(C)[C@@H](C(=O)Cn4nccn4)CC[C@@H]32)C1 value_unit=mL/min/kg recorded_number=66.7
compound=Cc1cnn(CC(=O)[C@H]2CC[C@H]3[C@@H]4CC[C@@H]5C[C@](C)(O)CC[C@@H]5[C@H]4CC[C@]23C)c1 value_unit=mL/min/kg recorded_number=85
compound=C[C@@]1(O)CC[C@H]2[C@H](CC[C@@H]3[C@@H]2CC[C@]2(C)[C@@H](C(=O)Cn4cc(C#N)cn4)CC[C@@H]32)C1 value_unit=mL/min/kg recorded_number=70

Let's switch to this molecule now.
Requested read-out: CLhep predicted at 10 µM. Entry: `C[C@@]1(O)CC[C@H]2[C@H](CC[C@@H]3[C@@H]2CC[C@]2(C)[C@@H](C(=O)Cn4ccc(C#N)n4)CC[C@@H]32)C1`
83.3

---

experiment: Clearance in CD1 mouse at 5 mg/kg, iv or 20 mg/kg, po measured up to 8 hrs post dose by LC/MS-MS analysis; assay type: ADME, organism-based; settings: in vivo
This listing pairs compounds with measured clearance.
Number in mL/min/kg, nothing else.

Below, each entry is followed by its recorded clearance result.
compound=C[C@@]1(O)CC[C@H]2[C@H](CC[C@@H]3[C@@H]2CC[C@]2(C)[C@@H](C(=O)Cn4cccn4)CC[C@@H]32)C1 recorded_number=75
compound=C[C@@]1(O)CC[C@H]2[C@H](CC[C@@H]3[C@@H]2CC[C@]2(C)[C@@H](C(=O)Cn4ccc(C#N)n4)CC[C@@H]32)C1 recorded_number=43.3
compound=Cc1cnn(CC(=O)[C@H]2CC[C@H]3[C@@H]4CC[C@@H]5C[C@](C)(O)CC[C@@H]5[C@H]4CC[C@]23C)c1 recorded_number=60

Requested read-out: clearance. Entry: C[C@@]1(O)CC[C@H]2[C@H](CC[C@@H]3[C@@H]2CC[C@]2(C)[C@@H](C(=O)Cn4cc(C#N)cn4)CC[C@@H]32)C1 [ZURANOLONE]
25

Requested read-out: clearance. Entry: `Cc1cnn(CC(=O)[C@H]2CC[C@H]3[C@@H]4CC[C@@H]5C[C@](C)(O)CC[C@@H]5[C@H]4CC[C@]23C)n1`
61.7

Requested read-out: clearance. Entry: CC(=O)[C@H]1CC[C@H]2[C@@H]3CC[C@H]4C[C@H](O)CC[C@]4(C)[C@H]3CC[C@]12C [BREXANOLONE]
200

Requested read-out: clearance. Entry: `C[C@@]1(O)CC[C@H]2[C@H](CC[C@@H]3[C@@H]2CC[C@]2(C)[C@@H](C(=O)Cn4nccn4)CC[C@@H]32)C1`
43.3
